All values here come from patent US20250034165A1.

methodSummary: In vitro stability in liver microsomes
Assay type: in vitro ADME
measurementSetup: Human liver microsome
Could you label it MET if measured Stability in liver microsomes (residual %, T = 60 min) is 80% or higher, and NOT MET otherwise?

Kindly determine if Stability in liver microsomes (residual %, T = 60 min) recorded for Cc1cc2cc(n1)-c1cnn(C)c1OCCC[C@@H](C1CC1)CN1/C(=N/C2=O)Nc2ccc(N[C@H]3C[C@@H](N(C)C)C3)cc21 is above or exactly 80%.
NOT MET

Kindly determine if Stability in liver microsomes (residual %, T = 60 min) recorded for Cc1cc2cc(n1)-c1cnn(C)c1OCCC[C@@H](C1CC1)CN1/C(=N/C2=O)Nc2cc(NC3CCN(C)CC3)ccc21 is above or exactly 80%.
MET

Kindly determine if Stability in liver microsomes (residual %, T = 60 min) recorded for Cc1cc2cc(n1)-c1cnn(C)c1OCCC[C@@H](C1CC1)CN1/C(=N/C2=O)Nc2cc(N[C@H]3C[C@H](N(C)C)C3)ccc21 is above or exactly 80%.
MET

Kindly determine if Stability in liver microsomes (residual %, T = 60 min) recorded for Cc1cc2cc(n1)-c1cnn(C)c1OCCC[C@@H](C1CC1)CN1/C(=N/C2=O)Nc2ccc(N[C@H]3CC[C@H](N(C)C)CC3)cc21 is above or exactly 80%.
MET

Kindly determine if Stability in liver microsomes (residual %, T = 60 min) recorded for Cc1cc2cc(n1)-c1cnn(C)c1OCCC[C@@H](C1CC1)CN1/C(=N/C2=O)Nc2ccc(N[C@H]3CC[C@@H](N(C)C)C3)cc21 is above or exactly 80%.
NOT MET

Kindly determine if Stability in liver microsomes (residual %, T = 60 min) recorded for Cc1cc2cc(n1)-c1cnn(C)c1OCCC[C@@H](C1CC1)CN1/C(=N/C2=O)Nc2ccc(N[C@@H]3CC[C@@H](N(C)C)C3)cc21 is above or exactly 80%.
NOT MET

Kindly determine if Stability in liver microsomes (residual %, T = 60 min) recorded for Cc1cc2cc(n1)-c1cnn(C)c1OCCC[C@@H](C1CC1)CN1/C(=N/C2=O)Nc2ccc(NC(=O)CCN(C)C)cc21 is above or exactly 80%.
NOT MET

Kindly determine if Stability in liver microsomes (residual %, T = 60 min) recorded for Cc1cc2cc(n1)-c1cnn(C)c1OCCC[C@@H](C1CC1)CN1/C(=N/C2=O)Nc2ccc(N[C@H]3CC[C@@H](N(C)C)CC3)cc21 is above or exactly 80%.
MET

* * *

experimentalSystem: EGFR (d746-750 (d19)/T790M) (Homo sapiens (Human), UniProt P00533, DEL746-750/T790M)
Sequence (P00533 other isoform, or with tags, fused parts or gaps T790M/del 1-668/del 746-750 limits assumed): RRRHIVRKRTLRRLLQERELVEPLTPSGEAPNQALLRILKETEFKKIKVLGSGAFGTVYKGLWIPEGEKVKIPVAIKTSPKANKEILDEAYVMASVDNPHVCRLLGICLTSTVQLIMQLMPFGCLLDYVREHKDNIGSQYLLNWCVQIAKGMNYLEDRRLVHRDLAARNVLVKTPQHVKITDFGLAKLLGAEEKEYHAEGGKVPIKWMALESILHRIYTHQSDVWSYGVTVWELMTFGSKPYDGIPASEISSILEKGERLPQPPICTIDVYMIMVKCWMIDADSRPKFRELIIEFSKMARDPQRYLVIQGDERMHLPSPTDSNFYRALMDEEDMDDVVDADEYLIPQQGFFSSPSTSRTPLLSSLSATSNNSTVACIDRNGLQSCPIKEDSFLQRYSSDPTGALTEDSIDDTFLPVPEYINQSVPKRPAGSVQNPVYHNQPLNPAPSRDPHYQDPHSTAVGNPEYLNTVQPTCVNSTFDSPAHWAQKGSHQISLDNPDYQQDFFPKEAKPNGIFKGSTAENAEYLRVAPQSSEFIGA
methodSummary: Inhibitory activity for EGFR (d746-750 (d19)/T790M) kinase
measurementSetup: ATP 5 μM
Please go through the items and note down their pIC50.
Numbers only, as −log10 of the molar value.

The following compounds have reported results that may help.
Cc1cc2cc(n1)-c1cnn(C3CC3)c1OCCC[C@@H](C)CN1/C(=N/C2=O)Nc2ccc(NCCN(C)C)cc21	10.92
Cc1cc2cc(n1)-c1cnn(C)c1OCCC[C@@H](C1CC1)CN1/C(=N/C2=O)Nc2cc(N[C@@H]3CCOC3)ccc21	10.82
Cc1cc2cc(n1)-c1cnn(C)c1OCCC[C@@H](C1CC1)CN1/C(=N/C2=O)Nc2ccc(NCCCN(C)C)cc21	10.72
Cc1cc2cc(n1)-c1cnn(C)c1OCCC[C@@H](C1CC1)CN1/C(=N/C2=O)Nc2cc(NC3CCC3)ccc21	10.55

Could I get pIC50 for every one of these entries?
1. CNCCCNc1ccc2c(c1)N/C1=N\C(=O)c3cc(C)nc(c3)-c3cnn(C)c3OCCC[C@@H](C3CC3)CN12
2. Cc1cc2cc(n1)-c1cnn(C)c1OCCC[C@@H](C1CC1)CN1/C(=N/C2=O)Nc2cc(NC3CCN(C)CC3)ccc21
3. Cc1cc2cc(n1)-c1cnn(C)c1OCCC[C@@H](C1CC1)CN1/C(=N/C2=O)Nc2cc(NCCN3CCOCC3)ccc21

[10.52, 10.85, 10.85]

* * *

methodSummary: In vivo pharmacokinetics in ICR mice
measurementSetup: mouse, plasma, PO, 10 mg/kg intragastric
observedProperty: AUC(0-inf) (ng·h/mL)
Numbers only, in ng·h/mL.

The following molecules have reported results that may help.
Cc1cc2cc(n1)-c1cnn(C)c1OCCC[C@@H](C1CC1)CN1/C(=N/C2=O)Nc2cc(NCCCN3CCCCC3)ccc21	1680
Cc1cc2cc(n1)-c1cnn(C)c1OCCC[C@@H](C1CC1)CN1/C(=N/C2=O)Nc2ccc(N[C@H]3C[C@H](N(C)C)C3)cc21	662
Cc1cc2cc(n1)-c1cnn(C)c1OCCC[C@@H](C1CC1)CN1/C(=N/C2=O)Nc2ccc(NCCN(C)C)cc21	965
CCC1(Nc2ccc3c(c2)N/C2=N\C(=O)c4cc(C)nc(c4)-c4cnn(C)c4OCCC[C@@H](C4CC4)CN23)COC1	3020
Cc1cc2cc(n1)-c1cnn(C)c1OCCC[C@@H](C1CC1)CN1/C(=N/C2=O)Nc2ccc(N[C@@H](C)CN(C)C)cc21	2200

Read the next record carefully.
I'd like to know its AUC(0-inf). The molecule in question is Cc1cc2cc(n1)-c1cnn(C)c1OCCC[C@@H](C1CC1)CN1/C(=N/C2=O)Nc2cc(NC3(C)COC3)ccc21
3640

* * *

Please go through the items and note down their IC50.
experimentalSystem: EGFR (L858R/T790M) (Homo sapiens (Human), UniProt P00533, L858R/T790M)
Sequence (P00533 25-1210 T790M/L858R): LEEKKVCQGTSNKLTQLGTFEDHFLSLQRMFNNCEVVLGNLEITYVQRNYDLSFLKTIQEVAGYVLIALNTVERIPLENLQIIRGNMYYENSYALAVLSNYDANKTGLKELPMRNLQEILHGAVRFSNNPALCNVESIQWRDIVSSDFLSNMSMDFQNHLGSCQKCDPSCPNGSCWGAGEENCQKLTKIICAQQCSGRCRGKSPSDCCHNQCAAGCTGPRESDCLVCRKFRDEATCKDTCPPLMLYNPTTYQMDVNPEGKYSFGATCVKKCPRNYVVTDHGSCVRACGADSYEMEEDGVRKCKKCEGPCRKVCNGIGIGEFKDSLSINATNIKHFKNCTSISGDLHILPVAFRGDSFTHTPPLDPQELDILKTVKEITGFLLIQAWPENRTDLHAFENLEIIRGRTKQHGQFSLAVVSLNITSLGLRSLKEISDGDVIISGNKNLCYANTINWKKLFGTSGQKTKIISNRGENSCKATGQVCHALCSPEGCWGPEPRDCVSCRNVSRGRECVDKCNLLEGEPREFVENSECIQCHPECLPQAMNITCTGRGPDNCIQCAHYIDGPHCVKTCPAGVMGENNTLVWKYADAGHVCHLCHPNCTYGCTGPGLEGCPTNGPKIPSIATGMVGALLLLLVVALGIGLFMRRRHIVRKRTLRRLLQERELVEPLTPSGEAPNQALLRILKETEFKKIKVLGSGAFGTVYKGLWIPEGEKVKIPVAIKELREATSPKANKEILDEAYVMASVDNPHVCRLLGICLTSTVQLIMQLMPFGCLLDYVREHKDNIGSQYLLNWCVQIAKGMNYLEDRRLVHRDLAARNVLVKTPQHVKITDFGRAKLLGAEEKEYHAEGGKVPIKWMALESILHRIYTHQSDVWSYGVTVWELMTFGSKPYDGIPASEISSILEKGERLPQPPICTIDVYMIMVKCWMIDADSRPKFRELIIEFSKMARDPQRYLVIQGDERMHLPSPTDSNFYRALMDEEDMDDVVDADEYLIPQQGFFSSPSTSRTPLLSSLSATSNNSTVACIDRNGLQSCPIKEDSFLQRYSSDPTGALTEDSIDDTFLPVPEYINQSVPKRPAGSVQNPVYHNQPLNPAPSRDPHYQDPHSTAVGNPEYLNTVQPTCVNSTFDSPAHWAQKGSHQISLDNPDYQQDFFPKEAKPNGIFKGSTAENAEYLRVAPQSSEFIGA
methodSummary: Inhibitory activity for EGFR (L858R/T790M) kinase
measurementSetup: ATP 5 μM

C[C@H](Nc1ccc2c(c1)N/C1=N\C(=O)c3cc(F)nc(c3)-c3cnn(C)c3OCCC[C@@H](C3CC3)CN12)C(F)(F)F	450 pM
Cc1cc2cc(n1)-c1cnn(C)c1OC[C@H](C1CC1)CCCn1c(nc3ccc(NC4COC4)cc31)NC2=O	81 pM
Cc1cc2cc(n1)-c1cnn(C)c1OCCC[C@@H](C1CC1)CN1/C(=N/C2=O)Nc2cc(NC3(C(F)(F)F)COC3)ccc21	10 pM
Cc1cc2cc(n1)-c1cnn(C)c1OC[C@H](C1CC1)CCCn1c(nc3cc(NC4COC4)ccc31)NC2=O	90 pM
Cc1cc2cc(n1)-c1cnn(C)c1OCCC[C@@H](C1CC1)CN1/C(=N/C2=O)Nc2cc(N[C@H]3CC[C@@H](N(C)C)CC3)ccc21	25 pM
Cc1cc2cc(n1)-c1cnn(C)c1OCCC[C@@H](C1CC1)CN1/C(=N/C2=O)Nc2ccc(C=CCCN(C)C)cc21	31 pM

Could I get IC50 for every one of these entries?
1. Cc1cc2cc(n1)-c1cnn(C)c1OCCC[C@@H](C1CC1)CN1/C(=N/C2=O)Nc2cc(N[C@H](C)C3COC3)ccc21
2. Cc1cc2cc(n1)-c1cnn(C)c1OCCC[C@@H](C1CC1)CN1/C(=N/C2=O)Nc2cc(N[C@H]3CC[C@H](N(C)C)CC3)ccc21

1. 40 pM
2. 21 pM

* * *

methodSummary: In vivo pharmacokinetics in ICR mice
measurementSetup: IV
We label by threshold. Values of CLz strictly beneath 60 mL/min/kg are Yes. Values of 60 mL/min/kg and up are No.

Solved cases below.
Cc1cc2cc(n1)-c1cnn(C)c1OCCC[C@@H](C1CC1)CN1/C(=N/C2=O)Nc2ccc(N[C@H]3C[C@H](N(C)C)C3)cc21	No
Cc1cc2cc(n1)-c1cnn(C)c1OCCC[C@@H](C1CC1)CN1/C(=N/C2=O)Nc2cc(NCCCN3CCOCC3)ccc21	No
Cc1cc2cc(n1)-c1cnn(C)c1OCCC[C@@H](C1CC1)CN1/C(=N/C2=O)Nc2ccc(NCCN(C)C)cc21	Yes
CCC1(Nc2ccc3c(c2)N/C2=N\C(=O)c4cc(C)nc(c4)-c4cnn(C)c4OCCC[C@@H](C4CC4)CN23)COC1	Yes
Cc1cc2cc(n1)-c1cnn(C)c1OCCC[C@@H](C1CC1)CN1/C(=N/C2=O)Nc2cc(NC3(C)COC3)ccc21	Yes

With those in mind, consider the next compound.
Bench note: check whether Cc1cc2cc(n1)-c1cnn(C)c1OCCC[C@@H](C1CC1)CN1/C(=N/C2=O)Nc2cc(N[C@H](C)C3COC3)ccc21 shows CLz below 60 mL/min/kg
No

* * *

experimentalSystem: EGFR (d746-750/T790M/C797S) (Homo sapiens (Human), UniProt P00533, C797S/DEL746-750/T790M)
Sequence (P00533 other isoform, or with tags, fused parts or gaps T790M/C797S/del 1-694/del 746-750 limits assumed): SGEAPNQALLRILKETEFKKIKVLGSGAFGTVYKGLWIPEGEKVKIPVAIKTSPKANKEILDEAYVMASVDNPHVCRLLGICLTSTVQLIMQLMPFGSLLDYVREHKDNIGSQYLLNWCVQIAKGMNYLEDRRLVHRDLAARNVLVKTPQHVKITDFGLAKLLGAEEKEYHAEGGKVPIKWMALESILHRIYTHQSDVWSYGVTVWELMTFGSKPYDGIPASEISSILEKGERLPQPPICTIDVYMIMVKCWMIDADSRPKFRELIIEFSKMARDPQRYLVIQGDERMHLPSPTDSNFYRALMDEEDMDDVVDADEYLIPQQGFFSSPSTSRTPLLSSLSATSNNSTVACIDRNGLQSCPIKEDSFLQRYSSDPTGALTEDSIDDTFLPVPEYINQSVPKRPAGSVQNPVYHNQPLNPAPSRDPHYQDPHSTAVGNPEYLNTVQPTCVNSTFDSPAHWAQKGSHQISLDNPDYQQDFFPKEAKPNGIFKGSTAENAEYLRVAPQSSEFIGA
methodSummary: Inhibitory activity for EGFR (d746-750/T790M/C797S) kinase
measurementSetup: ATP 5 μM; read-out: EGFR(d19/T790M/C797S) (IC50)
observedProperty: pIC50
Answers are plain numbers, as −log10 of the molar value.

The following compounds have reported results that may help.
[2H]C([2H])([2H])N(C[C@@H](C)Nc1ccc2c(c1)N/C1=N\C(=O)c3cc(C)nc(c3)-c3cnn(C)c3OCCC[C@@H](C3CC3)CN12)C([2H])([2H])[2H]	10.13
Cc1cc2cc(n1)-c1cnn(C)c1OCCC[C@@H](C1CC1)CN1/C(=N/C2=O)Nc2cc(N[C@@H]3CCOC3)ccc21	10.59
Cc1cc2cc(n1)-c1cnn(C)c1OCCC[C@@H](C1CC1)CN1/C(=N/C2=O)Nc2cc(N[C@@H]3CC[C@H](N(C)C)C3)ccc21	10.01
[2H]C([2H])([2H])N(C[C@H](C)Nc1ccc2c(c1)N/C1=N/C(=O)c3cc(C)nc(c3)-c3cnn(C)c3OCCC[C@@H](C3CC3)CN12)C([2H])([2H])[2H]	9.92
Cc1cc2cc(n1)-c1cnn(C)c1OCCC[C@@H](C1CC1)CN1/C(=N/C2=O)Nc2cc(NC[C@H]3COCCO3)ccc21	10.55
Cc1cc2cc(n1)-c1cnn(C)c1OCCC[C@@H](C1CC1)CN1/C(=N/C2=O)Nc2cc(NC3C(C)(C)OC3(C)C)ccc21	10.51
Cc1cc2cc(n1)-c1cnn(C)c1OCCC[C@@H](C1CC1)CN1/C(=N/C2=O)Nc2cc(NCCCCN)ccc21	10.89
CCN1CCC(Nc2ccc3c(c2)N/C2=N\C(=O)c4cc(C)nc(c4)-c4cnn(C)c4OCCC[C@@H](C4CC4)CN23)CC1	10.57
Cc1cc2cc(n1)-c1cnn(C)c1OCCC[C@@H](C1CC1)CN1/C(=N/C2=O)Nc2cc(N(C)C3COC3)ccc21	10.80
Cc1cc2cc(n1)-c1cnn(C)c1OCCC[C@@H](C1CC1)CN1/C(=N/C2=O)Nc2cc(NC3COC3(C)C)ccc21 (stereo partly shown)	10.34

Could I get pIC50 for every one of these entries?
1. Cc1cc2cc(n1)-c1cnn(C)c1OCCC[C@@H](C1CC1)CN1/C(=N/C2=O)Nc2ccc(N[C@H](C)CCN3CCCCC3)cc21
2. Cc1cc2cc(n1)-c1cnn(C3CC3)c1OCCC[C@@H](C)CN1/C(=N/C2=O)Nc2cc(NC[C@H]3COCCO3)ccc21
3. Cc1cc2cc(n1)-c1cnn(C)c1OCCC[C@@H](C1CC1)CN1/C(=N/C2=O)Nc2cc(N[C@@H](C)CCN3CCCCC3)ccc21

1: 10.10; 2: 10.00; 3: 10.11
